Data credit: patent US11472778B2

target.or.test.system: GT1a R155K NS3/4A protease
Type: biochemical, Hepatitis C virus
assay.context: fold change in Ki, R155K relative to WT
measured.quantity: Ki R155K (fold change)

molecule: C=C[C@@H]1C[C@]1(NC(=O)[C@@H]1C[C@@H](Oc2nc3cc(OC)ccc3nc2C)CN1C(=O)[C@@H](NC(=O)OC1CCCC1)C(C)(C)C)C(=O)NS(=O)(=O)C1(C)CC1 [Compound 12b]
measured.quantity: Ki R155K (fold change)
result.value: 1.4

molecule: C=C[C@@H]1C[C@]1(NC(=O)[C@@H]1C[C@@H](Oc2nc3cc(OC)ccc3nc2Cl)CN1C(=O)[C@@H](NC(=O)OC(C)(C)C)C(C)(C)C)C(=O)NS(=O)(=O)C1(C)CC1 [Compound 10d]
measured.quantity: Ki R155K (fold change)
result.value: 0.7

molecule: C=C[C@@H]1C[C@]1(NC(=O)[C@@H]1C[C@@H](Oc2nc3cc(OC)ccc3nc2Cl)CN1C(=O)[C@@H](NC(=O)OC(C)(C)C)C(C)(C)C)C(=O)NS(=O)(=O)C1CC1 [Compound 9d]
measured.quantity: Ki R155K (fold change)
result.value: 0.3

molecule: C=C[C@@H]1C[C@]1(NC(=O)[C@@H]1C[C@@H](Oc2nc3cc(OC)ccc3nc2C(F)(F)F)CN1C(=O)[C@@H](NC(=O)OC1CCCC1)C(C)(C)C)C(=O)NS(=O)(=O)C1CC1 [Compound 11e]
measured.quantity: Ki R155K (fold change)
result.value: 0.8

molecule: C=C[C@@H]1C[C@]1(NC(=O)[C@@H]1C[C@@H](Oc2nc3cc(OC)ccc3nc2C)CN1C(=O)[C@@H](NC(=O)OC(C)(C)C)C(C)(C)C)C(=O)NS(=O)(=O)C1CC1 [Compound 9b]
measured.quantity: Ki R155K (fold change)
result.value: 0.5

**Query** Param item = C=C[C@@H]1C[C@]1(NC(=O)[C@@H]1C[C@@H](Oc2nc3cc(OC)ccc3nc2C)CN1C(=O)[C@@H](NC(=O)OC1CCCC1)C(C)(C)C)C(=O)NS(=O)(=O)C1CC1 [Compound 11b] ; retrieve measured Ki R155K (fold change).
**Result** 1.0

###

target.or.test.system: wild-type GT1a NS3/4A protease (UniProt P27958)
Construct: Ki WT; other: wild-type HCV NS3/4A protease
Assay type: biochemical, Hepatitis C virus
assay.context: read-out: Ki (nM) WT; Table 8; linear inhibitors
measured.quantity: Ki (nM)
Supply the numeric figure in nM, leaving out any unit text.

**Query** Param item = C=C[C@@H]1C[C@]1(NC(=O)[C@@H]1C[C@@H](Oc2nc3cc(OC)ccc3nc2Cl)CN1C(=O)[C@@H](NC(=O)OC1CCCC1)C(C)(C)C)C(=O)NS(=O)(=O)C1CC1 [Compound 11d] ; retrieve measured Ki.
**Result** 3.8

###

Tested on: HCV replicon D168A variant in Huh7 cells
assay.summary: microbe, parasite or virus in culture
Format: cell-based, Hepatitis C virus
assay.context: Hepatitis C virus, Huh-7, read-out: Replicon EC50 (nM) D168A, Table 4
measured.quantity: EC50 (nM)
Supply the numeric figure in nM, leaving out any unit text.

**Query** Param item = COc1ccc2nc(Cl)c(O[C@@H]3C[C@H]4C(=O)N[C@]5(C(=O)NS(=O)(=O)C6CC6)C[C@H]5/C=C\CCCCC[C@H](NC(=O)OC5CCCC5)C(=O)N4C3)nc2c1 [Compound 22c] ; retrieve measured EC50.
**Result** 1.32

**Query** Param item = COc1ccc2nc(C(C)C)c(O[C@@H]3C[C@H]4C(=O)N[C@]5(C(=O)NS(=O)(=O)C6CC6)C[C@H]5/C=C\CCCCC[C@H](NC(=O)OC5CCCC5)C(=O)N4C3)nc2c1 [Compound 22e] ; retrieve measured EC50.
**Result** 7.96

**Query** Param item = CCc1nc2ccc(OC)cc2nc1O[C@@H]1C[C@H]2C(=O)N[C@]3(C(=O)NS(=O)(=O)C4CC4)C[C@H]3/C=C\CCCCC[C@H](NC(=O)OC(C)(C)C)C(=O)N2C1 ; retrieve measured EC50.
**Result** 6.31
